molecular target: UniProtKB Q8NBP7; assay: PCSK9 ligand binding TR-FRET assay (interference with binding of human PCSK9 to human LDLR); details: PCSK9 FRET assay, efficacy (Amax); 100% = 1 uM unlabeled human PCSK9, 0% = DMSO
Sequence (Q8NBP7 153-692): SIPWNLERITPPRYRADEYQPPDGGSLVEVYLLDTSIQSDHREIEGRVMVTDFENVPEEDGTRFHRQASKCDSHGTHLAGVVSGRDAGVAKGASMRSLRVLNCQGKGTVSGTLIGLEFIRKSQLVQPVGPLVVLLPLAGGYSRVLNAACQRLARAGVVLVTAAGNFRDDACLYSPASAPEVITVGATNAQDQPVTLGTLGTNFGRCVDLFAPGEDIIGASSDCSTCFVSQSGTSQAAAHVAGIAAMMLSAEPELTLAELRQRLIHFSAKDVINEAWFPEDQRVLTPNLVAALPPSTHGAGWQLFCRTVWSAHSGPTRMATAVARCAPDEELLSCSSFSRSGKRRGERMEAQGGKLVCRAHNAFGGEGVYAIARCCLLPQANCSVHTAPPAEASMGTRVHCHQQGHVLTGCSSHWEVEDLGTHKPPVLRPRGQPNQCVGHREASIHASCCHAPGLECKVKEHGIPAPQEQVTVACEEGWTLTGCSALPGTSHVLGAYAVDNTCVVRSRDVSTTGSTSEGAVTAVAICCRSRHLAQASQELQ
Sequence (Q8NBP7 31-152 partner limits assumed): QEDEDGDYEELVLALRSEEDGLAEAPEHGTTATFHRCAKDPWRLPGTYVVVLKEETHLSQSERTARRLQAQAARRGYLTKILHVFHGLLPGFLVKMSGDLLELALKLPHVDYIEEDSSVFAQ
Task for the reader: assign each of the following compounds its reported Max % inhibition.
One number for each entry, in %.

CN(C)Cc1ncc(-c2ccc(Oc3cc(Cl)ccc3CN3C(=O)C[C@@H](Cc4ccccc4)C(=O)N(C)[C@H]4CCCC[C@@H]4NC(=O)C[C@H](Cc4ccc(Cl)cc4)N(C)C(=O)[C@H](CO)NC(=O)[C@H]3CCC(=O)OC(C)(C)C)cc2)n1C    89.28
C=CC[C@@H]1CC(=O)N(Cc2ccc(C)cc2Oc2ccc(-c3cnc(CN(C)C)n3C)cc2)[C@@H](C)C(=O)N[C@@H](COC)C(=O)N(C)[C@@H](Cc2ccc(Cl)cc2)CC(=O)N[C@@H](C)[C@H](C)N(C)C1=O    100.41
COC[C@@H]1NC(=O)[C@H](C)N(Cc2ccc(Cl)cc2Oc2ccc(-c3cnc(CN(C)C)n3C)cc2)C(=O)C[C@@H](Cc2ccccc2)C(=O)N(C)[C@@H](C)[C@H](C)NC(=O)C[C@H](Cc2ccc(Cl)cc2)N(C)C1=O    103.39

Consider the additional compound presented here.
Problem: What does the record list as Max % inhibition for "COC[C@@H]1NC(=O)[C@H](C)N(Cc2c(F)ccc(F)c2Oc2ccc(-c3cnc(CN(C)C)n3C)cc2)C(=O)C[C@@H](Cc2ccccc2)C(=O)N(C)[C@@H](C)CNC(=O)C[C@H](Cc2ccc(Cl)cc2)N(C)C1=O" ?
Solution: 96.70
